The reported numbers originate from ChEMBL document CHEMBL1153982.

experiment: Cmax in rat at 10 mg/kg; assay type: ADME, organism-based; design: dose 10 mg/kg; settings: in vivo
readout.type: Cmax (ng/mL)

Solved cases (2 shown):
OC[C@@H]1CCCN1Cc1ccc(Nc2nc3ncnc(Nc4ccc(F)c(Cl)c4)c3s2)cc1 : 2.4
NS(=O)(=O)c1ccc(Nc2nc3ncnc(Nc4cccc(Cl)c4)c3s2)cc1 : 39

(A) CN(C)Cc1ccc(Nc2nc3ncnc(Nc4ccc(F)c(Cl)c4)c3s2)cc1
(B) Fc1ccc(Nc2ncnc3nc(Nc4ccc(CN5CCOCC5)cc4)sc23)cc1Cl
(C) Fc1ccc(Nc2ncnc3nc(Nc4ccc(CCN5CCOCC5)cc4)sc23)cc1Cl
(D) N#Cc1cnc2nc(Nc3ccc(CN4CCOCC4)cc3)sc2c1Nc1ccc(F)c(Cl)c1
Q: Reorder the items by Cmax, least to greatest. Reply: labels, ordered per the request.
A: D, A, C, B

* * *

test: Oral bioavailability in rat at 10 mg/kg; type: ADME, organism-based; conditions: in vivo
readout.type: bioavailability (%)

N#Cc1cnc2nc(Nc3ccc(CN4CCOCC4)cc3)sc2c1Nc1ccc(F)c(Cl)c1 : 10.8

(a) Fc1ccc(Nc2ncnc3nc(Nc4ccc(CCN5CCOCC5)cc4)sc23)cc1Cl
(b) OC[C@@H]1CCCN1Cc1ccc(Nc2nc3ncnc(Nc4ccc(F)c(Cl)c4)c3s2)cc1
(c) NS(=O)(=O)c1ccc(Nc2nc3ncnc(Nc4cccc(Cl)c4)c3s2)cc1
(d) Fc1ccc(Nc2ncnc3nc(Nc4ccc(CN5CCOCC5)cc4)sc23)cc1Cl
(e) CN(C)Cc1ccc(Nc2nc3ncnc(Nc4ccc(F)c(Cl)c4)c3s2)cc1
Q: Ascending sort, bioavailability. Answer by naming the labels in the order asked.
A: b, c, e, a, d

* * *

experiment: AUC in rat at 10 mg/kg; type: ADME, organism-based; set-up: dose 10 mg/kg; details: plasma
readout.type: AUC (ng·h/mL)

Below, 4 compounds whose answers are already recorded.
N#Cc1cnc2nc(Nc3ccc(CN4CCOCC4)cc3)sc2c1Nc1ccc(F)c(Cl)c1 : 184
OC[C@@H]1CCCN1Cc1ccc(Nc2nc3ncnc(Nc4ccc(F)c(Cl)c4)c3s2)cc1 : 24
NS(=O)(=O)c1ccc(Nc2nc3ncnc(Nc4cccc(Cl)c4)c3s2)cc1 : 224
CN(C)Cc1ccc(Nc2nc3ncnc(Nc4ccc(F)c(Cl)c4)c3s2)cc1 : 322

(I) Fc1ccc(Nc2ncnc3nc(Nc4ccc(CN5CCOCC5)cc4)sc23)cc1Cl
(II) Fc1ccc(Nc2ncnc3nc(Nc4ccc(CCN5CCOCC5)cc4)sc23)cc1Cl
Q: Between I and II , whose recorded AUC is greater? Give the label under which the chosen entry appears.
A: I
